- study system: E2F2 overexpressed in stable transfected 3T3 cells (nuclear extract) (UniProt Q14209 1-437, limits assumed)
- Sequence (Q14209 whole entry): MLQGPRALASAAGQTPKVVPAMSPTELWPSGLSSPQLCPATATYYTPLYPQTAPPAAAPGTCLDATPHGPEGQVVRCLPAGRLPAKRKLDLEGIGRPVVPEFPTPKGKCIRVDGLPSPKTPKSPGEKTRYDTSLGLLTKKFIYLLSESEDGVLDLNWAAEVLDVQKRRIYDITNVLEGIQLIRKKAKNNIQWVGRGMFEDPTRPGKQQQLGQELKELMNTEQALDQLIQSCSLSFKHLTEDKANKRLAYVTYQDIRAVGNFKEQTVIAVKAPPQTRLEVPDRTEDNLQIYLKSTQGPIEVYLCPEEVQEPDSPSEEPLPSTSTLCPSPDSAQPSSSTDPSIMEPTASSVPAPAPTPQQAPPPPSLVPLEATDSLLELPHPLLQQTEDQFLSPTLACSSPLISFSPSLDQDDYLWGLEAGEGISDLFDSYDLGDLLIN
- assay overview: band shift, extract of 3T3 cells overexpressing E2F2; inhibition of DNA binding
pIC50: −log10 of the molar value. Ends that are not written are not given here.
# pIC50 per entry
recorded metric: pIC50

binder	test value
GSRILTFRSGSWYAS (also: tetravalent MAP core: 4 copies joined by C-terminus to Lys2-Lys-X core, Branched tetravalent peptide on a lysine MAP core) [MAP4-SEQ ID NO:5]	~4.52
WVRWHF (also: tetravalent MAP core: 4 copies joined by C-terminus to Lys2-Lys-X core, Branched tetravalent peptide on a lysine MAP core)	~4.52
